assay: Pharmacokinetics (PK) in SD rats; format: in vivo, Sprague-Dawley (SD) rats; settings: Sprague-Dawley, rat, plasma, iv 1 mg/kg, read-out: CL p (converted)
property: clearance (mL/min/kg)
# number only, unit mL/min/kg dropped from output

Endpoint output: clearance of Cc1ccc2c(c1)CN(C(=O)CC(C)(C)NCC(=O)N1CCC[C@H]1C#N)C2 [Compound 4b] . Value? 437

* * *

molecular target: Human DPP-8 (Homo sapiens)
Sequence (Q6V1X1 whole entry): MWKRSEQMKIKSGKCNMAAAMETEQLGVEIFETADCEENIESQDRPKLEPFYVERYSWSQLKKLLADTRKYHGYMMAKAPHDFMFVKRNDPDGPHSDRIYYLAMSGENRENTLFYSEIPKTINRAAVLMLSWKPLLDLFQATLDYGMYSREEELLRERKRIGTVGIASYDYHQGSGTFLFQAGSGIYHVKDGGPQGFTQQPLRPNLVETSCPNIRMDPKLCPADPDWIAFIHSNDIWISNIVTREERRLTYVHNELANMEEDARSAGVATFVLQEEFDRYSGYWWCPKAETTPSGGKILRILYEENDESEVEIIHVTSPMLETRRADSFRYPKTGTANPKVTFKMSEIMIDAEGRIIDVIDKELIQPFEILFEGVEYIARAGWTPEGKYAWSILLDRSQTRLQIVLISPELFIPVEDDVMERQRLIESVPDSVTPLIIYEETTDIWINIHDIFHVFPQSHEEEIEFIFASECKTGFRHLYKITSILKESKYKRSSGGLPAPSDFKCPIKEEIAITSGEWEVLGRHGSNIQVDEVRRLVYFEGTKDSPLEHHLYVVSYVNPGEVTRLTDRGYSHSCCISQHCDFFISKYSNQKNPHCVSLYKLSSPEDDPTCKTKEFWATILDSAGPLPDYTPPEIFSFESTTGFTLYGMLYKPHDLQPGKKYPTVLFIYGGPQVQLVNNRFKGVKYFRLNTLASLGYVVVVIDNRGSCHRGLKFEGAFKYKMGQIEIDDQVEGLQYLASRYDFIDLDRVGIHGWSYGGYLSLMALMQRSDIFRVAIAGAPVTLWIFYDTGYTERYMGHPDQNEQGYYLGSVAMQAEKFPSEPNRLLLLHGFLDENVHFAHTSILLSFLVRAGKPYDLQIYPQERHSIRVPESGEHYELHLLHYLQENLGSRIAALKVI
# reported IC50; entries follow

These recorded examples may help you get a feel for the data.
{"columns": ["compound", "system-name", "IC50"],
 "data": [
  ["CC(C)(CC(=O)N1Cc2cc(Cl)c(Cl)cc2C1)NCC(=O)N1CCC[C@H]1C#N [Compound 4j]", "Human DPP-8 (Homo sapiens)", "> 100 µM"],
  ["CC(C)(CC(=O)N1Cc2cccc(F)c2C1)NCC(=O)N1CCC[C@H]1C#N [Compound 4g]", "Human DPP-8 (Homo sapiens)", "> 100 µM"],
  ["CC(C)(CC(=O)N1Cc2ccc(Br)cc2C1)NCC(=O)N1CCC[C@H]1C#N [Compound 4d]", "Human DPP-8 (Homo sapiens)", "36 µM"]
]}

Continue with the compound presented below.
Endpoint output: IC50 of CC(C)(CC(=O)N1Cc2ccc(C(F)(F)F)cc2C1)NCC(=O)N1CCC[C@H]1C#N [Compound 4f] . Value? > 100 µM

* * *

assay: Pharmacokinetics (PK) in SD rats; type: in vivo, Sprague-Dawley (SD) rats; settings: Sprague-Dawley, rat, plasma, po 10 mg/kg
property: Cmax (ng/mL)
# number only, unit ng/mL dropped from output

Endpoint output: Cmax of Cc1ccc2c(c1)CN(C(=O)CC(C)(C)NCC(=O)N1CCC[C@H]1C#N)C2 [Compound 4b] . Value? 229

* * *

target: Human recombinant DPP-IV (Homo sapiens, UniProt P27487); assay: In vitro assay for DPP-IV inhibition (H-Gly-Pro-AMC fluorescence)
Sequence (P27487 whole entry): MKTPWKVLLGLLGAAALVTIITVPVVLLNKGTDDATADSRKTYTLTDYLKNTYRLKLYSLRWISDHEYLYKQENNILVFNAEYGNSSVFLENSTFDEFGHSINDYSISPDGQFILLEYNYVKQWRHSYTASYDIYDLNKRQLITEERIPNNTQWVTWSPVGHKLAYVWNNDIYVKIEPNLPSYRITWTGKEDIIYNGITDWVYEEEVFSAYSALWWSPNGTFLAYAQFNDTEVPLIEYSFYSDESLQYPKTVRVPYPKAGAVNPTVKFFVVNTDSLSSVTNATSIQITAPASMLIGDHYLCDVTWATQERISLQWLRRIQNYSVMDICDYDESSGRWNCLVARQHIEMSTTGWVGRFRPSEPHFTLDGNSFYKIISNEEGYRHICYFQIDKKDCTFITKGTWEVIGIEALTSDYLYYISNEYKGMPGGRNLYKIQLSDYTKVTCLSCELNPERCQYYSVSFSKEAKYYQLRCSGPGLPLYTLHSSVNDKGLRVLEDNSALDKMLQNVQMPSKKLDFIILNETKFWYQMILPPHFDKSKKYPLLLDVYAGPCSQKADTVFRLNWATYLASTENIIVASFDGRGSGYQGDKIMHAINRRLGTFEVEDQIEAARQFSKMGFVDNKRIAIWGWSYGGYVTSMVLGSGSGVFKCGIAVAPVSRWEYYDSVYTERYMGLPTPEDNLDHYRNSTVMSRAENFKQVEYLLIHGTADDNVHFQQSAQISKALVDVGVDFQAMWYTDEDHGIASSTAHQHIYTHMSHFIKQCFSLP
property: log10 of IC50 (log10 of the value in nM)
Please note: log10 values; quantity IC50; unit nM.

{"columns": ["molecule", "log10 of IC50"],
 "data": [
  ["CC(C)(CC(=O)N1Cc2cc(Cl)c(Cl)cc2C1)NCC(=O)N1CCC[C@H]1C#N [Compound 4j]", 1.34],
  ["CC(C)(CC(=O)N1Cc2ccc(F)cc2C1)NCC(=O)N1CCC[C@H]1C#N [Compound 4c]", 0.28]
]}

Endpoint output: log10 of IC50 of CC(C)(CC(=O)N1Cc2ccc(C(F)(F)F)cc2C1)NCC(=O)N1CCC[C@H]1C#N [Compound 4f] . Value? 0.73

Again, but for CC(C)(CC(=O)N1Cc2ccc(Cl)cc2C1)NCC(=O)N1CCC[C@H]1C#N [Compound 4e] 0.68

Again, but for Cc1cccc2c1CN(C(=O)CC(C)(C)NCC(=O)N1CCC[C@H]1C#N)C2 [Compound 4h] 0.60

Again, but for CC(C)(CC(=O)N1Cc2c(Cl)ccc(Cl)c2C1)NCC(=O)N1CCC[C@H]1C#N [Compound 4i] 0.41

Again, but for CC(C)(CC(=O)N1Cc2cccc(F)c2C1)NCC(=O)N1CCC[C@H]1C#N [Compound 4g] 0.41

Again, but for CC(C)(CC(=O)N1Cc2ccc(Br)cc2C1)NCC(=O)N1CCC[C@H]1C#N [Compound 4d] 0.48

Again, but for COc1cc(C)cc2c1CN(C(=O)CC(C)(C)NCC(=O)N1CCC[C@H]1C#N)C2 [Compound 4k] 1.20

* * *

assay: Pharmacokinetics (PK) in SD rats; type: in vivo, Sprague-Dawley (SD) rats; conditions: Sprague-Dawley, rat, plasma, po 10 mg/kg
property: Tmax (min)
# number only, unit min dropped from output

Endpoint output: Tmax of Cc1ccc2c(c1)CN(C(=O)CC(C)(C)NCC(=O)N1CCC[C@H]1C#N)C2 . Value? 15

* * *

Test: Pharmacokinetics (PK) in SD rats
Format: in vivo, Sprague-Dawley (SD) rats
Settings: Sprague-Dawley, rat, plasma, iv 1 mg/kg, read-out: AUC 0-9 h
Experimental: Sprague-Dawley (SD) rats were housed under standard conditions and allowed free access to water and a commercial diet. On the day before the experiment, rats were fasted overnight and for the first 12 h of the experiment. […] Peak areas were determined using Xcalibur® software (Thermo Electron Corporation, UK) and AUC values were calculated by the trapezoidal rule.
property: AUC(0-t) (ng·h/mL)
# number only, unit ng·h/mL dropped from output

Endpoint output: AUC(0-t) of Cc1ccc2c(c1)CN(C(=O)CC(C)(C)NCC(=O)N1CCC[C@H]1C#N)C2 . Value? 39

* * *

test: Pharmacokinetics (PK) in SD rats; type: in vivo, Sprague-Dawley (SD) rats; settings: Sprague-Dawley, rat, plasma, po 3 mg/kg
property: Tmax (min)
# number only, unit min dropped from output

Endpoint output: Tmax of Cc1ccc2c(c1)CN(C(=O)CC(C)(C)NCC(=O)N1CCC[C@H]1C#N)C2 . Value? 15

* * *

Experiment: Pharmacokinetics (PK) in SD rats
Type: in vivo, Sprague-Dawley (SD) rats
Conditions: Sprague-Dawley, rat, plasma, po 3 mg/kg, read-out: AUC 0-9 h
Procedure: Sprague-Dawley (SD) rats were housed under standard conditions and allowed free access to water and a commercial diet. On the day before the experiment, rats were fasted overnight and for the first 12 h of the experiment. […] Peak areas were determined using Xcalibur® software (Thermo Electron Corporation, UK) and AUC values were calculated by the trapezoidal rule.
property: AUC(0-t) (ng·h/mL)
# number only, unit ng·h/mL dropped from output

Endpoint output: AUC(0-t) of Cc1ccc2c(c1)CN(C(=O)CC(C)(C)NCC(=O)N1CCC[C@H]1C#N)C2 [Compound 4b] . Value? 33

* * *

assay: Pharmacokinetics (PK) in SD rats; assay type: in vivo, Sprague-Dawley (SD) rats; conditions: Sprague-Dawley, rat, plasma, po 10 mg/kg, read-out: AUC 0-9 h
property: AUC(0-t) (ng·h/mL)
# number only, unit ng·h/mL dropped from output

Endpoint output: AUC(0-t) of Cc1ccc2c(c1)CN(C(=O)CC(C)(C)NCC(=O)N1CCC[C@H]1C#N)C2 [Compound 4b] . Value? 156

* * *

assay: Pharmacokinetics (PK) in SD rats; type: in vivo, Sprague-Dawley (SD) rats; conditions: Sprague-Dawley, rat, plasma, po 3 mg/kg
property: Cmax (ng/mL)
# number only, unit ng/mL dropped from output

Endpoint output: Cmax of Cc1ccc2c(c1)CN(C(=O)CC(C)(C)NCC(=O)N1CCC[C@H]1C#N)C2 . Value? 37

* * *

test: Metabolic stability in human liver microsomes; assay type: in vitro ADME; conditions: read-out: CL'int Human (converted)
property: CLint scaled at 5 μM (mL/min/kg)
# number only, unit mL/min/kg dropped from output

{"columns": ["compound", "units", "observed-result"],
 "data": [
  ["CC(C)(CC(=O)N1Cc2ccccc2C1)NCC(=O)N1CCC[C@H]1C#N [Compound 4a]", "mL/min/kg", 3.33],
  ["CC(C)(CC(=O)N1Cc2ccc(F)cc2C1)NCC(=O)N1CCC[C@H]1C#N [Compound 4c]", "mL/min/kg", 80]
]}

Continue with the compound presented below.
Endpoint output: CLint scaled at 5 μM of Cc1ccc2c(c1)CN(C(=O)CC(C)(C)NCC(=O)N1CCC[C@H]1C#N)C2 [Compound 4b] . Value? 1.67

* * *

assay: Pharmacokinetics (PK) in SD rats; type: in vivo, Sprague-Dawley (SD) rats; conditions: Sprague-Dawley, rat, plasma, iv 1 mg/kg, read-out: Vd ss
property: Vd
Returns: string containing the number followed by the unit.

Endpoint output: Vd of Cc1ccc2c(c1)CN(C(=O)CC(C)(C)NCC(=O)N1CCC[C@H]1C#N)C2 . Value? 8.28 L/kg

* * *

Assay read-out IC50; system under study: Human DPP-9 (Homo sapiens).
Sequence (Q86TI2 whole entry): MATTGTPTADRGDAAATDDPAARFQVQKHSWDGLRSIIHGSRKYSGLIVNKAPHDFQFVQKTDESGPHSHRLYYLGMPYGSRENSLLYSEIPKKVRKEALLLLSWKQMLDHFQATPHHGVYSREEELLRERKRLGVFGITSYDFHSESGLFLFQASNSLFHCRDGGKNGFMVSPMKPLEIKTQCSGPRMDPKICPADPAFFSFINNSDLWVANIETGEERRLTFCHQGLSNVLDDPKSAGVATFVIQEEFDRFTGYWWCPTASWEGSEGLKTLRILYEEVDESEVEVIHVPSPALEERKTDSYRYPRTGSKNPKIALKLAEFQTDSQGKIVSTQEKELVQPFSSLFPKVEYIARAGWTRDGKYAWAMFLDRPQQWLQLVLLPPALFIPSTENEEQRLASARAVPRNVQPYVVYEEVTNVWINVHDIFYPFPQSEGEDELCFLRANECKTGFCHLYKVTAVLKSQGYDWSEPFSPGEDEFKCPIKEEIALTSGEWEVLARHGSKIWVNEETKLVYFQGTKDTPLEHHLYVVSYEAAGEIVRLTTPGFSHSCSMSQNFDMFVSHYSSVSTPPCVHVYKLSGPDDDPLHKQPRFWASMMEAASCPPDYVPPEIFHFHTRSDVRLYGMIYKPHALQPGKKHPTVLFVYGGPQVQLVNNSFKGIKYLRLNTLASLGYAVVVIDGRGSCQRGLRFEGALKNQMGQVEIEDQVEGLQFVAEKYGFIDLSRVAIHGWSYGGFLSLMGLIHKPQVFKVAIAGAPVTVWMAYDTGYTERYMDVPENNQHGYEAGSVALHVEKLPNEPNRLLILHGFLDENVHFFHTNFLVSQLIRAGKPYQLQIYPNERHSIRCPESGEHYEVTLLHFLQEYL

{"columns": ["given-smiles", "IC50"],
 "data": [
  ["CC(C)(CC(=O)N1Cc2ccc(Br)cc2C1)NCC(=O)N1CCC[C@H]1C#N", "> 100 µM"]
]}

Endpoint output: IC50 of CC(C)(CC(=O)N1Cc2ccc(Cl)cc2C1)NCC(=O)N1CCC[C@H]1C#N . Value? > 100 µM

* * *

biological target: human plasma DPP-IV (Homo sapiens); experiment: IC50 with respect to human plasma DPP-IV (separate experiments); settings: separate experiments (footnote a)
property: IC50 (nM)
# number only, unit nM dropped from output

Endpoint output: IC50 of CC(C)(CC(=O)N1Cc2ccc(CO)cc2C1)NCC(=O)N1CCC[C@H]1C#N . Value? 1.9
